Kindly state IC50 for each of the entries shown.
Give the number first and the unit second.

IN: With human p38alfa (SAPKa) enzyme (Homo sapiens (Human)) as the test system, provide measured IC50 for this molecule: Cc1ccc(C(=O)NC2CC2)cc1-c1cc2c(cn1)C1(CCCC1)C(=O)N2 [Example 51]
Sequence (Q16539 whole entry): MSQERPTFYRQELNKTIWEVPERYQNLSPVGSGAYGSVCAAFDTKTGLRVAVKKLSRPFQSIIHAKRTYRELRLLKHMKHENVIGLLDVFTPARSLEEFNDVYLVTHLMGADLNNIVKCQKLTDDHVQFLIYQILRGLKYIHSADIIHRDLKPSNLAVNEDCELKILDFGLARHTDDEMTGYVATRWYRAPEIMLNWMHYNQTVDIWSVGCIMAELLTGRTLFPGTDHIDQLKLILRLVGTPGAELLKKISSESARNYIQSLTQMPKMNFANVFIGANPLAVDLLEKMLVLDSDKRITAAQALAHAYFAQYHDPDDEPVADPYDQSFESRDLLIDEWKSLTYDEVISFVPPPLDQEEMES
OUT: 0.8 nM

IN: With human p38alfa (SAPKa) enzyme (Homo sapiens (Human)) as the test system, provide measured IC50 for this molecule: Cc1nnc(-c2ccc(C)c(-c3ccc4c(c3)NC(=O)C43CCOCC3)c2)[nH]1 [Example 59]
OUT: 10 nM

IN: With human p38alfa (SAPKa) enzyme (Homo sapiens (Human)) as the test system, provide measured IC50 for this molecule: Cc1ccc(C(=O)NC2CC2)cc1-c1ccc2c(c1)NC(=O)C21CCC(C)(O)CC1 (stereo not drawn) [Example 37]
OUT: 0.8 nM
